# assayComment: qHTS to identify inhibitors of the type 1 interferon - major histocompatibility complex class I in skeletal muscle: primary screen against the NCATS Mechanism Interrogation Plate v5.0 (MIPE) Libary (AID 1347411); further: nearly all actives have a fitted effect of over 65% in size
# conditionNotes: iHSKM cells + IFN-b, HiBiT-tagged MHC-I luminescence, 24 h; series mostly up to 45.8 µM
Records with an inconclusive call do not appear. Activity calls are given as the source filed them. The call rests on the fitted dose curve; in most records, active means well fitted inhibition curve with a large enough effect; inconclusive means small, poorly fitted or top-dose-only effect; inactive means no such curve, though single readings can be large or run the other way.
Your answer must be one of the following: 1 (yes) = active, 0 (no) = inactive

Solved cases (6 shown):
{"smilesString": "CC(C)C[C@H](NC(=O)CNC(=O)c1cc(Cl)ccc1Cl)B(O)O", "className": "1 (yes)"}
{"smilesString": "Cc1ccc(C(N)=O)cc1Nc1nccc(-c2cn(C(C)C)c3cnccc23)n1", "className": "1 (yes)"}
{"smilesString": "CN1CCN(c2cc(C(=O)Nc3ccc4c(c3)-c3c(c(C(N)=O)nn3-c3ccc(F)cc3)CC4)c(Cl)cn2)CC1", "className": "1 (yes)"}
{"smilesString": "CC(C)(C)c1cc(C(C)(C)C)c(NC(=O)c2c[nH]c3ccccc3c2=O)cc1O", "className": "1 (yes)"}
{"smilesString": "CC(C)c1noc(N2CCC(COc3ccc(-c4ccc(S(C)(=O)=O)cc4)nc3)CC2)n1", "className": "0 (no)"}
{"smilesString": "CN1CCC(CNc2ccc3ncc(-c4cccc(OC(F)(F)F)c4)n3n2)CC1", "className": "1 (yes)"}

QUERY: // outcome(item) with item = Nc1nc(NCCNc2ncc(-n3ccnc3)c(-c3ccc(Cl)cc3Cl)n2)ccc1[N+](=O)[O-]
RESULT: 1 (yes)

QUERY: // outcome(item) with item = CC(C)c1ccc(Cn2ccc3c4c(N)nc(NC5CC5)nc4ccc32)cc1
RESULT: 1 (yes)

###

# assayComment: Quantitative High-Throughput drug screen in 47 multiple myeloma cell lines against the NCATS MIPE library collection: PCM6_Riken cell viability assay (AID 1919870); further: potency means the concentration at half of the fitted maximal effect; nearly all actives have a fitted effect of over 30% in size
# conditionNotes: CellTiter-Glo ATP, 48 h; series mostly up to 45.8 µM
Results filed as inconclusive are left out. Calls of active or inactive are those of the source. Calls come from the whole dose curve; as a rule, active = well fitted cell-killing curve with a large enough effect; inconclusive = small, poorly fitted or top-dose-only effect, or effect the other way; inactive = no such curve, though single readings can be large or run the other way.
Your answer must be one of the following: yes (1) for active, no (0) for inactive

{"compound": "CN1CCN(Cc2ccc(NC(=O)Nc3ccc(Oc4cc(NC(=O)C5CC5)ncn4)cc3)cc2C(F)(F)F)CC1", "className": "yes (1)"}

QUERY: // outcome(item) with item = C=CCn1c(=O)c2cnc(Nc3ccc(N4CCN(C)CC4)cc3)nc2n1-c1cccc(C(C)(C)O)n1
RESULT: yes (1)

QUERY: // outcome(item) with item = COC(=O)[C@]12CCC(C)(C)C[C@@H]1[C@@H]1C(=O)C=C3[C@@]4(C)C=C(C#N)C(=O)C(C)(C)[C@@H]4CC[C@@]3(C)[C@]1(C)CC2
RESULT: yes (1)

###

# Tested on: TAB165
# assayComment: qHTS profiling for inhibitors of Plasmodium falciparum proliferation (AID 504749); further: nearly all actives have a fitted effect of over 60% in size; further: potency means the concentration at half of the fitted maximal effect
# conditionNotes: P. falciparum in erythrocytes, SYBR Green DNA, 72 h; series mostly up to 28.7 µM
Results filed as inconclusive are left out. The source made the active and inactive calls. Calls come from the whole dose curve; as a rule, active = well fitted inhibition curve with a large enough effect; inconclusive = small, poorly fitted or top-dose-only effect; inactive = flat fitted curve, though single readings scatter.
quantity: Potency

{"compound": "CC1(C)O[C@@H]2C[C@@H]3[C@H]4C[C@@H](F)C5=CC(=O)C=C[C@]5(C)[C@@]4(F)[C@@H](O)C[C@]3(C)[C@]2(C(=O)CO)O1", "target": "TAB165", "Potency": "inactive"}
{"compound": "Nc1ccn([C@@H]2O[C@H](CO)[C@H](O)C2(F)F)c(=O)n1", "target": "TAB165", "Potency": "3980 nM (active)"}
{"compound": "COC(=O)C1=C(C)NC(C)=C(C(=O)OCCN2CCN(C(c3ccccc3)c3ccccc3)CC2)C1c1cccc([N+](=O)[O-])c1 (stereo not drawn)", "target": "TAB165", "Potency": "2240 nM (active)"}
{"compound": "CC[C@H]1CN2CCc3cc(OC)c(OC)cc3[C@H]2C[C@@H]1C[C@@H]1NCCc2cc(OC)c(OC)cc21", "target": "TAB165", "Potency": "316 nM (active)"}
{"compound": "COc1cc(C(=O)NS(=O)(=O)c2ccccc2C)ccc1Cc1cn(C)c2ccc(NC(=O)OC3CCCC3)cc12", "target": "TAB165", "Potency": "inactive"}
{"compound": "CC=CC1=C(C(=O)O)N2C(=O)[C@H](NC(=O)[C@H](N)c3ccc(O)cc3)[C@@H]2SC1", "target": "TAB165", "Potency": "inactive"}
{"compound": "COc1c(N2C[C@@H]3CCCN[C@H]3C2)c(F)cc2c(=O)c(C(=O)O)cn(C3CC3)c12", "target": "TAB165", "Potency": "inactive"}

# context switch: different compound, same Potency
QUERY: Query for TAB165: what Potency does the record show for O=c1[nH]c(=O)n(C2CCCO2)cc1F (stereo not drawn) ?
RESULT: inactive

###

# System: CP335
# assayComment: qHTS profiling for inhibitors of Plasmodium falciparum proliferation (AID 504749); further: nearly all actives have a fitted effect of over 60% in size
# conditionNotes: P. falciparum in erythrocytes, SYBR Green DNA, 72 h; series mostly up to 28.7 µM
Results filed as inconclusive are left out. Active and inactive are the calls of the source. Calls follow the shape of the dose curve; as a rule, active = well fitted inhibition curve with a large enough effect; inconclusive = small, poorly fitted or top-dose-only effect; inactive = flat fitted curve, though single readings scatter.
Your answer must be one of the following: active, inactive

Solved cases (6 shown):
{"molecule": "CC1(C)O[C@@H]2C[C@@H]3[C@H]4C[C@@H](F)C5=CC(=O)C=C[C@]5(C)[C@@]4(F)[C@@H](O)C[C@]3(C)[C@]2(C(=O)CO)O1", "className": "inactive"}
{"molecule": "CC[C@H]1CN2CCc3cc(OC)c(OC)cc3[C@H]2C[C@@H]1C[C@@H]1NCCc2cc(OC)c(OC)cc21", "className": "active"}
{"molecule": "CC(C)(C)NC(=O)[C@H]1CN(Cc2cccnc2)CCN1C[C@@H](O)C[C@@H](Cc1ccccc1)C(=O)N[C@H]1c2ccccc2C[C@H]1O", "className": "active"}
{"molecule": "CN1c2cc(O)c(N=NC(N)=O)cc2CC1S(=O)(=O)O (centres undefined)", "className": "inactive"}
{"molecule": "COc1c(N2C[C@@H]3CCCN[C@H]3C2)c(F)cc2c(=O)c(C(=O)O)cn(C3CC3)c12", "className": "inactive"}
{"molecule": "O=C(O)CO.[NH2-].[NH2-].[Pt+2]", "className": "inactive"}

QUERY: // outcome(item) with item = COC(=O)C[C@](O)(CCCC(C)(C)O)C(=O)O[C@@H]1C(OC)=C[C@]23CCCN2CCc2cc4c(cc2[C@H]13)OCO4
RESULT: active

QUERY: // outcome(item) with item = C[C@H]1C[C@@H]2[C@@H]([C@@H](O)C[C@@]3(C)[C@H]2CC[C@]3(O)C(=O)CO)[C@@]2(C)C=CC(=O)C=C12
RESULT: inactive

QUERY: // outcome(item) with item = Nc1ccc(S(=O)(=O)Nc2ncccn2)cc1
RESULT: inactive

###

# assayComment: qHTS of pediatric cancer cell lines to identify multiple opportunities for drug repurposing: Primary screen for NB-EBc1 cells (AID 1347095)
# conditionNotes: NB-EBc1 neuroblastoma viability, CellTiter-Glo luminescence, 48 h; series mostly up to 46 µM
Records with an inconclusive call do not appear. Active and inactive are the calls of the source. Calls follow the shape of the dose curve; as a rule, active = well fitted cell-killing curve with a large enough effect; inconclusive = small, poorly fitted or top-dose-only effect; inactive = no such curve, though single readings can be large or run the other way.
Your answer must be one of the following: 1 for active, -1 for inactive

{"compound": "Nc1nccc(Oc2ccc(NC(=O)c3c[nH]cc(-c4ccc(F)cc4)c3=O)cc2F)c1Cl", "className": 1}
{"compound": "COc1cccc2nc(-c3cccs3)nc(NN3C(=O)C=C(C)C3=O)c12", "className": 1}
{"compound": "CC[C@@H]1C(=O)N(C)c2cnc(Nc3ccc(C(=O)NC4CCC(N5CCN(CC6CC6)CC5)CC4)cc3OC)nc2N1C(C)C (stereo not given in full)", "className": 1}

QUERY: // outcome(item) with item = O=C(NC1CCNCC1)c1[nH]ncc1NC(=O)c1c(Cl)cccc1Cl
RESULT: 1

QUERY: // outcome(item) with item = CC(C)(C)c1cc(C(C)(C)C)c(NC(=O)c2c[nH]c3ccccc3c2=O)cc1O
RESULT: -1

QUERY: // outcome(item) with item = COC(=O)Nc1nc2ccc(C(=O)c3ccc(F)cc3)cc2[nH]1
RESULT: 1

QUERY: // outcome(item) with item = c1cc(-c2cnn3cc(-c4ccc(OCCN5CCCCC5)cc4)cnc23)ccn1
RESULT: 1

QUERY: // outcome(item) with item = C[C@@H]1CN(CC(=O)Nc2ccc3c(c2)Cc2cccc(-c4cc(=O)cc(N5CCOCC5)o4)c2S3)C[C@H](C)O1
RESULT: 1

QUERY: // outcome(item) with item = CNC(=O)c1ccc(N2C(=S)N(c3cnc(C#N)c(C(F)(F)F)c3)C(=O)C23CCC3)cc1F
RESULT: 1
